# Tested on: MOLT-4
# assay_explanation: NCI tumour cell line growth inhibition, 48 h
Where a name gives a salt, the structure may show the parent alone. Activity calls are given as the source filed them. No stated cut-off is given here; in the data, active = GI50 up to about 1.1 µM and inactive = higher.
Response enum: 1 (yes) for active, 0 (no) for inactive

Q: Assay outcome for CCOC(=O)C(C)c1cc(C2(C)OCCO2)c(C)o1 (stereo not given) : what was it?
A: 0 (no)

Q: # fetch the recorded call for COC(=O)/C(=N/O)C(C(=O)C=C(C)C)C(=O)C(=O)Nc1nc2ccc([N+](=O)[O-])cc2s1 (stereo not given) here
A: 0 (no)

Q: Returns: the outcome recorded for `CCc1n[nH]c(=O)n1NC(=O)c1ccccc1C(=O)O` in this assay.
A: 0 (no)

Q: Record lookup: outcome of this test for `COC(=O)C(CCC1(C)OCCO1)=[N+]=[N-]` ?
A: 0 (no)

Q: Dear colleague, could you share the recorded outcome for `C/N=C(\S)N/N=C/C(C)=N/N/C(S)=N/C` when you have a moment?
A: 1 (yes)

Q: Any idea what this test logged for `CC(=O)OCCOCNC(=S)N/N=C/c1ccc([N+](=O)[O-])s1` ?
A: 0 (no)

Q: What is the recorded call for this compound in the test? CC(C(=O)O)C(C)(O)C(=O)O (stereo not given)
A: 0 (no)

Q: Per the records of this test, what outcome belongs to C/C=C1\C[C@@H]2C(OC)Nc3cc(O)c(OC)cc3C(=O)N2C1 (stereo not given in full) ?
A: 1 (yes)

Q: What call does the record list for CCCCCCCCCCOC1C(C(O)CNCCCN(C)C)OC2OC3(CCCCC3)OC21 (stereo not given) ?
A: 0 (no)

Q: Would you mind telling me which call this test gave `O=C1[C@H](O)[C@@H]2CCC[C@@]23CCCN13` ?
A: 0 (no)

Q: Name the outcome recorded for `Cc1cc(NS(=O)(=O)c2ccc(NC(=O)c3ccc4nc5ccccc5c(Nc5ccc(S(N)(=O)=O)cc5)c4c3)cc2)no1` in the assay.
A: 0 (no)

Q: Name the outcome recorded for `Clc1ccc(-c2c(C3=NCCCN3)nnn2-c2ccccc2)cc1` in the assay.
A: 0 (no)

Q: What is the recorded call for this compound in the test? `Oc1c(-c2ccccc2)nc2ccccn12`
A: 0 (no)

Q: GET /call?item= CC(C)C[C@H]1C(=O)N2CCC[C@H]2[C@]2(O)O[C@](NC(=O)[C@@H]3C=C4c5cccc6[nH]c(Br)c(c56)C[C@H]4N(C)C3)(C(C)C)C(=O)N12 [BROMOCRIPTINE MESYLATE] returns the recorded outcome of this test.
A: 0 (no)

Q: Field: outcome | Entry: COc1ccc2nc3ccc(OC)cc3c([S+]([O-])Cc3ccc([N+](=O)[O-])cc3)c2c1 (stereo not given)
A: 0 (no)

Q: How did this test come out for O=c1[nH]c(=O)n(C2CC(O)C(CO)O2)cc1C#Cc1c(F)c(F)c(F)c(F)c1F (stereo not given) ?
A: 0 (no)

Q: Look up the recorded call for `Cc1ccccc1C(=O)N1CCc2c([nH]c3ccccc23)C1` in this test.
A: 0 (no)

Q: Check the results log: what was the call for CC1CCC2C(C)C(OC(=O)CCC(=O)O)OC3OC4(C)CCC1C32OO4 (stereo not given) ?
A: 1 (yes)

Q: Please state the recorded outcome for this compound: `O=c1oc2ccccc2cc1-c1nnc(-c2ccccc2)s1`
A: 0 (no)

Q: For this compound, state the assay outcome: CC1=Nc2c(O)nc(S)nc2NC(c2ccc(Cl)c(Cl)c2)C1 (stereo not given)
A: 0 (no)

Q: What did the test return for C=C1C(=O)OC2/C=C(\COC(C)=O)CCC(OC(C)=O)C3=CC(OC3=O)C12 (stereo not given) ?
A: 0 (no)

Q: Would you mind telling me which call this test gave CNC(=O)N(C1=NCC(C)S1)c1ccc(C)c(C)c1 (stereo not given) ?
A: 0 (no)

Q: Which result was noted for this compound in the test: `COc1cc(S(=O)(=O)Nc2nc(-c3ccc(N)cc3)cs2)ccc1Cl`
A: 0 (no)

Q: Give the logged outcome of this assay for the following compound: `CCOC(=O)c1cc([N+](=O)[O-])cc([N+](=O)[O-])c1Sc1[nH]cnc2ncnc1-2`
A: 0 (no)

Q: Give the logged outcome of this assay for the following compound: COC12OCCN(C)C1=CC(=O)C1N=NCC12 (stereo not given)
A: 0 (no)

Q: Check the results log: what was the call for `CC(C)CCNC(=O)c1ccc(CNC(=O)/C=C/c2ccc(-c3ccccc3[N+](=O)[O-])o2)cc1` ?
A: 0 (no)

Q: Would you mind telling me which call this test gave COC(=O)C1(Cc2ccccc2)Cc2ccccc2C1=O (stereo not given) ?
A: 0 (no)

Q: What did the test return for `O=C1C=CC(=O)C12CCc1ccccc12` ?
A: 0 (no)

Q: How was `Cc1c(O)c(C)c2c(C)cn(C(=O)C(C)(C)C)c2c1C` classified in this test?
A: 0 (no)

Q: Per the assay record, what outcome was assigned to N#Cc1cc2c(n(C3OC(CO)C(O)C(O)C3O)c1=S)CCC2 (stereo not given) ?
A: 0 (no)

Q: Test call for this compound, please: COC(=O)C1=C(C(=O)OC)C(OO)(c2ccccc2)OC1=O (stereo not given)
A: 0 (no)

Q: // param item: CCOC(=O)C(NC(=O)CC)(Nc1ccc(S(=O)(=O)Nc2ccc(OC)nn2)cc1)C(F)(F)F (stereo not given) ; yields the recorded call
A: 0 (no)

Q: Per the records of this test, what outcome belongs to `Cc1ccc2c(O)cc(-c3ccc4ccccc4c3)nc2n1` ?
A: 0 (no)

Q: Would you mind telling me which call this test gave `CC(=O)[C@H]1[C@@H](OCc2ccccc2)O[N+]([O-])=C(C)[C@@H]1c1ccccc1` ?
A: 0 (no)

Q: Lab log entry: `NCCCN(CCCN)CCN(CCN(CCCN)CCCN)CCN(CCCN)CCCN` — outcome as called in the assay?
A: 0 (no)

Q: Short answer needed: outcome of this test for `CCOC(=O)c1c(N2CCCC2)[nH]c(=O)c(C(c2ccc(N(C)C)cc2)c2c(O)c(C(=O)OCC)c(N3CCCC3)[nH]c2=O)c1O` ?
A: 0 (no)

Q: Check the results log: what was the call for `Nc1nc(Cl)cc(NCCC2(CO)CCC2)n1` ?
A: 0 (no)

Q: Recorded test call requested for `COc1ccc2o/c(=N\c3ccc(F)cc3)c(C(N)=O)cc2c1`
A: 0 (no)

Q: Lab log entry: `CC[C@@H]1CC[C@@H]2[C@H](CC[C@]3(C)[C@@H](OS(=O)(=O)c4ccc(C)cc4)CC[C@@H]23)[C@H]1COS(=O)(=O)c1ccc(C)cc1` — outcome as called in the assay?
A: 0 (no)

Q: Query: recorded result category for O=C1C[S+]([O-])c2ccccc2N1 (stereo not given) in this test
A: 0 (no)
